Assay: Cmax in Swiss Webster male mouse at 12.5 mg/kg, ip
Type: ADME, organism-based
Design: dose 12.5 mg/kg, route intraperitoneal
Conditions: in vivo
readout.name: Cmax (ng/mL)
Output spec: scalar in ng/mL, unitless text.

Lookup result for O=C1/C(=C/c2ccccn2)CNC/C1=C\c1ccccn1 ; measured Cmax: 1070

* * *

Assay: Tmax in CD2F1 male mouse at 10 mg/kg, po
Format: ADME, organism-based
Parameters: dose 10 mg/kg, route oral
Conditions: in vivo
readout.name: Tmax (min)
Output spec: scalar in min, unitless text.

Lookup result for O=C1/C(=C/c2ccccc2F)CNC/C1=C\c1ccccc1F ; measured Tmax: 3

* * *

Test: Cmax in CD2F1 male mouse at 10 mg/kg, po
Assay type: ADME, organism-based
Parameters: dose 10 mg/kg, route oral
Settings: in vivo
readout.name: Cmax (ng/mL)
Output spec: scalar in ng/mL, unitless text.

Lookup result for O=C1/C(=C/c2ccccc2F)CNC/C1=C\c1ccccc1F ; measured Cmax: 275

* * *

Assay: Half life in CD2F1 male mouse at 10 mg/kg, ip
Assay type: ADME, organism-based
Parameters: dose 10 mg/kg, route intraperitoneal
Conditions: in vivo
readout.name: half-life (h)
Output spec: scalar in h, unitless text.

Lookup result for O=C1/C(=C/c2ccccc2F)CNC/C1=C\c1ccccc1F ; measured half-life: 3.65

* * *

Test system: Mycobacterium marinum
Test: Antituberculosis activity against rifampicin-resistant Mycobacterium marinum assessed as growth inhibition after 72 hrs by liquid culture assay
Type: functional, organism-based
readout.name: IC50 (µM)
Output spec: scalar in µM, unitless text.

Lookup result for CN1C/C(=C\c2ccccn2)C(=O)/C(=C/c2ccccn2)C1 ; measured IC50: 4

The reported numbers originate from ChEMBL document CHEMBL3407440.
